# test.description: qHTS assay to identify small molecule antagonists of the retinoic acid receptor (RAR) signaling pathway (AID 1159552; also: nearly all actives have a fitted effect of over 50% in size)
# study.conditions: C3RL4 RARE luciferase reporter, retinol-stimulated, 6 h; series mostly up to 92.4 µM
# From the text: National Center for Advancing Translational Sciences [NCATS] NIH Chemical Genomics Center [NCGC] U.S. Environmental Protection Agency [EPA] National Institutes of Environmental Health Sciences [NIEHS] National Toxicology Program [NTP] U.S. Food and Drug Administration [FDA] […]
Records with an inconclusive call do not appear. Activity calls are given as the source filed them. Calls follow the shape of the dose curve; as a rule, active = well fitted inhibition curve with a large enough effect in the repeat runs; inconclusive = weak or mixed curves, or effect the other way; inactive = no such curve, though single readings can be large or run the other way.
Outcomes: active, inactive

Cc1cc(=O)oc2cc(N(C)C)ccc12 = inactive
Cc1cc(N)c(S(=O)(=O)O)cc1Cl = inactive
CC(=O)OCC(C)OC(C)=O (stereo not given) = inactive
N#CSc1ccc(N)c([N+](=O)[O-])c1 = active
Cc1oc(-c2ccccc2)nc1CCC(=O)c1ccc(CC2SC(=O)NC2=O)cc1 (stereo not given) = inactive

----------
# test.description: qHTS RealTime-Glo MT Cell Viability Assay in HEK293 cells - 40 hour (AID 1224874); also: % is scaled to controls: 0 for no effect and ±100 for the full control effect; nearly all actives have a fitted effect of over 50% in size
# study.conditions: RealTime-Glo luminescence; active compounds read low
Records with an inconclusive call do not appear.
Parameter: max response. Scope: all listed entries.
measurement.type: max response (%)

O=C(Nc1ccc(Oc2ccc(Cl)cc2)c(Cl)c1)c1cc(I)cc(I)c1O = 2.12
CSc1cnc(C)cn1 = 7.94
COc1cc(-c2ccc(N=C=O)c(OC)c2)ccc1N=C=O = -10
Clc1ccc2n[nH]nc2c1 = 4.16
CSc1ccc(/C=C2/C(C)=C(CC(=O)O)c3cc(F)ccc32)cc1 = 9.83
CCCCCCCCCCC=O = 2.14
O=c1[nH]cnc2nc[nH]c12 = 3.71
O=C1CCCCCN1SSN1CCCCCC1=O = -12.6
COc1cccc(N)c1 = -1.08
COc1cc(/C=C/C(=O)O[C@H]2CC[C@]34C[C@]35CC[C@]3(C)[C@@H]([C@H](C)CCC=C(C)C)CC[C@@]3(C)[C@@H]5CC[C@H]4C2(C)C)ccc1O = 1.32
Cc1onc(-c2ccccc2Cl)c1C(=O)N[C@@H]1C(=O)N2[C@@H]1SC(C)(C)[C@@H]2C(=O)O = -0.669
CCCCCOC(=O)CCCC = -0.909

----------
# test.description: qHTS assay to identify small molecule HDAC inhibitors - cell viability counter screen (AID 1259365); also: nearly all actives have a fitted effect of over 50% in size
# study.conditions: HCT-116 viability, CellTiter-Glo ATP luminescence, 2 h; series mostly up to 92.4 µM
Activity calls are given as the source filed them. The call rests on the fitted dose curve; in most records, active means well fitted cell-killing curve with a large enough effect in the repeat runs; inconclusive means weak or mixed curves, or effect the other way; inactive means flat fitted curve, though single readings scatter.
Outcomes: active, inactive

CCN(C(=O)N(CC)c1ccccc1)c1ccccc1 = inactive
OCc1c[nH]c2ccccc12 = inactive
Oc1c(Cl)cc(Cl)c2cccnc12 = inactive
Cc1cc2c(cc1C(F)(F)F)N(C(=O)Nc1ccc(Oc3cccnc3C)nc1)CC2 = inactive
N#CSc1ccc(N)c([N+](=O)[O-])c1 = inactive
N/C(=N\N=C\c1ccc(Cl)cc1)N/N=C/c1ccc(Cl)cc1 = inactive
CCN(Cc1cccnc1)C(=O)c1cccc(Cl)c1[C@]1(C)C(=O)N(Cc2ccc(OC)cc2OC)c2ccc(Cl)cc21 = inactive
CN(C)c1ccc(SC#N)cc1 = inactive
CC(C)C(C)(C)C(C)(C)C(C)(C)S = inactive
C/C=C1/C(=O)C[C@H]2[C@@H]3CCC4=CC(=O)CC[C@]4(C)[C@H]3CC[C@]12C = inactive
O=c1cc(-c2ccc(O)cc2)oc2cc(O)cc(O)c12 = inactive
CCCCCCCCCCCCCCCCCC[N+](C)(C)Cc1ccccc1 = active
